Assay: Resistance to proteolytic degradation by cathepsin G (nano-LC/MS)
Assay type: in vitro ADME
Settings: cathepsin G (isolated protease); peptide 50 ng/ml, 37° C., cathepsin G 13 mU/litre, pH 7.4; after 4 h; read-out: degraded with cathepsin G
No end group written: not given here.
quantity_name: metabolised at 4 h, 50 ng/ml

Which metabolised at 4 h, 50 ng/ml reading was recorded for the sequence KKKQKNGKKHQKKKVLKVRKSQRSRQKKTT [CXCL9 (74-103)] ?
> 90%

Where these numbers come from: patent US20250144177A1
